Field: IC50. Provide a value for each of the compounds that follow.
test system: Drechsiera siccans; assay: 50% inhibition of mycelium growth (IC50), five isolates, DMI fungicides; format: cell-based; details: isolate 04/F52, read-out: IC50 isolate 04/F52
Express your answer in µg/mL, writing the number without its unit.

Result for Fc1ccc([C@]2(Cn3cncn3)O[C@H]2c2ccccc2Cl)cc1 (racemic) , tested on Drechsiera siccans, IC50: 0.32

// compound OC(Cc1ccccc1Cl)(Cn1nc[nH]c1=S)C1(Cl)CC1 (centres unmarked) , assay Drechsiera siccans, IC50 value: 0.25

Field IC50 (system: Drechsiera siccans) for entry CC(C1CC1)C(O)(Cn1cncn1)c1ccc(Cl)cc1 (centres unmarked) = 0.44

Observed IC50, Drechsiera siccans, CC(C)(C)C(O)(CCc1ccc(Cl)cc1)Cn1cncn1 (centres unmarked) : 0.61

Readout IC50 for CCCC1COC(Cn2cncn2)(c2ccc(Cl)cc2Cl)O1 (centres unmarked) , test system Drechsiera siccans, was 0.3

* * *

tested on: Drechsiera siccans; experiment: 50% inhibition of mycelium growth (IC50), five isolates, DMI fungicides; type: cell-based; conditions: isolate 01/F30, average of two experiments, read-out: IC50 isolate 01/F30
Binary label based on IC50 with cut-off 0.3 µg/mL: below gives condition met, not below gives condition not met.

Enquiry: IC50 under 0.3 µg/mL? Item: Fc1ccc([C@]2(Cn3cncn3)O[C@H]2c2ccccc2Cl)cc1 (racemic) [Epoxiconazole]
Return: condition met

Enquiry: Regarding OC(Cc1ccccc1Cl)(Cn1nc[nH]c1=S)C1(Cl)CC1 (centres unmarked) [Prothioconazole] , kindly confirm whether its IC50 is beneath 0.3 µg/mL.
Return: condition met

Enquiry: For this compound, is IC50 lower than 0.3 µg/mL? CC(C1CC1)C(O)(Cn1cncn1)c1ccc(Cl)cc1 (centres unmarked) [Cyproconazole]
Return: condition not met

Enquiry: Please let me know if CC(C)(C)C(O)(CCc1ccc(Cl)cc1)Cn1cncn1 (centres unmarked) [Tebuconazole] shows IC50 below 0.3 µg/mL.
Return: condition not met

Enquiry: Item CCCC1COC(Cn2cncn2)(c2ccc(Cl)cc2Cl)O1 (centres unmarked) [Propiconazole] : IC50 beneath 0.3 µg/mL, strictly?
Return: condition not met
